Target: CB1 receptor (Homo sapiens, UniProt P21554)
Construct: expressed in transfected cells
Sequence (P21554 whole entry): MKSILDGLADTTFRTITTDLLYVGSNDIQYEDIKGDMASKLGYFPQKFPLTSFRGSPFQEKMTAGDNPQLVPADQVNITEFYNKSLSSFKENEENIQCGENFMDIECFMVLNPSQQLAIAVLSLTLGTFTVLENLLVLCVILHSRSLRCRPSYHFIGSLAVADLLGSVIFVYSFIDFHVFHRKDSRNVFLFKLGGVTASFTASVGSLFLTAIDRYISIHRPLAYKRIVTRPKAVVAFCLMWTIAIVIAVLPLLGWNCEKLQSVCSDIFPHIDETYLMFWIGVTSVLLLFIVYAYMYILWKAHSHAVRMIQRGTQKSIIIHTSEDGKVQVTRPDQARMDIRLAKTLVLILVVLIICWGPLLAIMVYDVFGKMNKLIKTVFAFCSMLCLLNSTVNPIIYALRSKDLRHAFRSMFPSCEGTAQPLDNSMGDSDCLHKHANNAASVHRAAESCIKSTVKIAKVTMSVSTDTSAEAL
Assay: Binding assay for CB1 agonists or inverse agonists (SK-N-MC membranes, [3H]-CP-55,940)
Settings: read-out: CB1 receptor binding percent inhibition, test concentration 0.2 μM (footnote 2)
Quick rule for you: inhibition at 0.2 µM at 60% or higher means Y, lower means N.

>>> label_class("O=C(N[C@H]1c2ccccc2C[C@H]1O)c1nn(-c2ccc(Cl)cc2Cl)c2c1CCCC/C2=C\\c1ccc(F)cc1 [Cpd 208]")
"Y"
>>> label_class("O=C(c1nn(-c2ccc(Cl)cc2Cl)c2c1CCCC/C2=C\\c1ccc(F)cc1)N1CCCC1c1ccccn1 (stereo not drawn) [Cpd 188]")
"Y"
>>> label_class("O=C(NCCc1ccccn1)c1nn(-c2ccc(Cl)cc2Cl)c2c1CCCC/C2=C\\c1ccc(Cl)cc1 [Cpd 157]")
"Y"
>>> label_class("C[C@H](NC(=O)c1nn(-c2ccncc2)c2c1CCCC/C2=C\\c1ccc(Cl)cc1)c1ccccc1 [Cpd 171]")
"N"
>>> label_class("COc1ccc(/C=C2\\CCCCc3c(C(=O)NC(C)c4ccccn4)nn(-c4ccc(Cl)cc4Cl)c32)cc1 (stereo not drawn) [Cpd 222]")
"N"
>>> label_class("O=C(N[C@H](CCl)c1ccccc1)c1nn(-c2ccc(F)cc2F)c2c1CCCCC2Cc1ccc(F)cc1 (stereo partly drawn) [Cpd 172]")
"Y"
